# Test system: K4 kissing-loop RNA reporter;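 note: bound reporter read as fluorescence of individual clusters on recovered sequencing chips by microscopy, with normalized cluster intensities fitted with a binding model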
# protocol text: apparent KD of K4 kissing-loop reporter; higher = weaker reporter binding
# test settings: Eterna round: R107; input ligand: arginine 13.2 mM
Quick rule for you: apparent KD of K4 kissing-loop reporter at 300 nM or higher means True, lower means False.

As a guide, the following entries are already answered.
AAAGUGUCAGCACGAGUGAUGUUCGUGGAUACCAGCCUCGAUAAAGGCCCUUGGCAGCCGAAAAGUCAAGGGCUGGCACAUAAAA [KL-XTheo-A11]	False
UGACACUCAACGGCCGCCACUACCGUCGCCGAAUUCCGCAGUGAUGUUGCGAUCCUCCGAUUGUCUAGGACCGGGUUGUUUGGGC [theeternabot_exclusion_KL_Trp_B_43]	False
AAGCGUGUCGCGGCCGCCACUCCUGAGUGAUGUUCAGAAAGCAGUUUUUUAUUCAGGAAAAGCGCGAGGACCGGGCGACGCCGAU [theeternabot_sameState_KL_Trp_B_1]	False
CCUAUCUCAUACGAUACCAGUCCGAGUGAUGUUCGAACAUAAAUUAGUUUGCCAUAUAAUGACCCUUGGCAGCGUAUGGGAUAGG [Ex Theophylline B K4 12]	True
CAAACGUGCGGUAGGUUCAAGCGCUGGGAAGGAGCGCAGAUGACUGCAGGUAGGUCGCCCAGUGAUGUUGGGCUUUCCACCUACG [Dilausma]	False

Consider now this further sequence.
Check this sequence for apparent KD of K4 kissing-loop reporter at or above 300 nM: UUUCUAUCGGGAAGGAGCGUGAAUGAUAAUGGAUAUAGUGAUGUUAUAUAUAAGAACGAAUCGCAGGUAGGUCGCCCGGAUGACU [SSArgB.R]
True

---

# System: MS2 coat protein
# protocol text: apparent KD of MS2 coat protein; higher = weaker reporter binding
# test settings: Eterna round: R107; input ligand: arginine 13.2 mM
Listed sequences paired with reported apparent KD of MS2 coat protein
Express your answer in nM, writing the number without its unit.

Here's what some known entries look like.
AGUAGACACGCGGCCGCCACUUGAGGAUCACCCAAGUGGUGUGUACUUGAAACAAGUGCACAAUCAAGGACCGGGCGUGUCUACA [Omei Tryp B SS D v4]	5.02
UGGCAAGAGGGAAGGAGCGUCAGCAGAGUCACAUGAGGAUCACCCAUGUAGCACGUGGUGUGACAGGUAGGUCGCCCUCUGCCGU [SS-ArgB12]	24.3

Next item in the queue.
Could you tell me which apparent KD of MS2 coat protein is on file for ACGAUACGACAUGAGGAUCACCCAUGUGAUACCAGCGUGGAAACACGCCCUUGGCAGCACAAAUACUCCAAUAACGUAUCGAAAA [MAT - Exclusion Theophlline A - Mod of Eli - D8] ?
139

Data credit: the supplement of paper PMC9170038
